Test system: SF-539 CNS
Experiment: NCI-60 one-dose screen, 48 h
Conditions: 10 µM unless noted
The panel holds about 83,000 compounds, 20% with a hit somewhere; the sample as a whole holds those more often. The source made the active and inactive calls. How the source made its calls: active means growth percent below 10; inactive means the rest.
The categories you may choose from are active, inactive

The following compounds have reported results that may help.
{"columns": ["compound", "assayed_target", "class_name"],
 "data": [
  ["CCSC(SCC)c1ccc(Cl)cc1", "SF-539 CNS", "inactive"],
  ["C#CCNC(=O)[C@H](CC)[C@H]1CC[C@H](C)[C@H]([C@@H](C)[C@H](O)[C@H](C)C(=O)[C@H](CC)C2O[C@]3(C=CC(=O)[C@]4(CC[C@@](C)([C@H]5CC[C@](O)(CC)[C@H](C)O5)O4)O3)[C@H](C)C[C@@H]2C)O1 (some centres undefined)", "SF-539 CNS", "active"],
  ["COc1ccc(/C=C(\\C#N)n2nnc3cc(F)c(F)cc32)cc1", "SF-539 CNS", "inactive"],
  ["NS(=O)(=O)c1ccc(N=Nc2c(O)n(Cc3ccccc3)c3ccc(Cl)cc23)cc1", "SF-539 CNS", "inactive"]
]}

In: What classification did CCCC/C=C/[C@@H]1C[C@H]1CCO end up with in this test?
Out: inactive

In: What classification did C#CCOc1cccc(Nc2ncnc3ccc(NC(=O)C=C)cc23)c1 end up with in this test?
Out: inactive

In: What classification did Cc1cc(N2CCN(CCNc3ccnc4cc(Cl)ccc34)CC2)nc(N2CCOCC2)n1 end up with in this test?
Out: inactive

In: What classification did O=[N+]([O-])c1ccc(O)cc1Br end up with in this test?
Out: inactive

In: What classification did COc1ccc(OC)c(-c2nc(SCC(=O)c3ccc(C#N)cc3)[nH]c(=O)c2C#N)c1 end up with in this test?
Out: inactive

In: What classification did CCOC(=O)c1ccc2c(c1)nc(-c1ccccc1)n2C1CCCCC1 end up with in this test?
Out: inactive

In: What classification did O=S(=O)(NCCNc1nccc(-c2c(-c3ccc(F)c(O)c3)nc3sccn23)n1)c1ccc(O)cc1 end up with in this test?
Out: inactive

In: What classification did COc1ccc(-c2nn(-c3cccc(Cl)c3)cc2-c2cc(-c3ccc(Br)cc3)nc(N)n2)cc1 end up with in this test?
Out: inactive

In: What classification did CCCNC(=O)Nc1ccc2cc3ccc(NC(=O)NCCC)cc3nc2c1 end up with in this test?
Out: inactive

In: What classification did N=C(N)c1ccc(-c2ccc(-c3ccccc3)o2)cc1 end up with in this test?
Out: active

In: What classification did CCN(CC)CCn1c2ccc(O)cc2c2sc3cc(O)ccc3c(=O)c21 end up with in this test?
Out: inactive

In: What classification did O=C(CN1CCOCC1)Nc1nc(-c2cc3ccccc3oc2=O)cs1 end up with in this test?
Out: inactive

In: What classification did C#Cc1c2c(c(OC)c3c1OCO3)[C@H]([C@H]1OC(=O)c3c1ccc(OC)c3OC)N(C)CC2 end up with in this test?
Out: inactive

====

Tested on: HS 578T breast
Test: NCI-60 one-dose screen, 48 h (100 = growth as untreated, 0 = no growth, -100 = all killed)
Settings: 10 µM unless noted
Compounds without any hit were thinned out: in the full panel of roughly 83,000, 20% have a hit.
measure: growth (%)
Numbers only, in %.

Example entries begin here.
{"columns": ["molecule", "reading_unit", "growth"],
 "data": [
  ["CCSc1nc2scc(C)c2c(=O)[nH]1", "%", 95.5],
  ["COc1ccc(CNc2c3ccccc3nc3ccccc23)cc1", "%", 58]
]}

Provide reported growth for each item, in the same order as listed.
1. COc1c(B(O)O)cccc1-c1cc(C)c2c(ccc3[nH]ncc32)n1
2. COc1ccc(Nc2nc(-c3cc(O)c(C)c(C)c3O)cs2)cc1
3. CCOC(=O)c1ccc(NC(=O)c2nc(-c3cc(OC)c(OC)c(OC)c3)n(-c3ccc(Cl)cc3)n2)cc1

Out:
1. 8.78
2. 76.7
3. 74.5

Provide reported growth for each item, in the same order as listed.
1. Cc1c2cnccc2c(C)c2c1c1cc(C#N)ccc1n2C
2. O=C1c2c(c3c4ccccc4[nH]c3c3ccc4ccccc4c23)C(=O)N1CCN1CCNCC1
3. N#Cc1ccc(O)c(C2=NCC(c3ccccc3)O2)c1 (stereo not given)
4. CCCCCCCC[C@@H]1N[C@@H](C(=O)OC)Cc2c1[nH]c1ccccc21

Out:
1: -18; 2: 94.7; 3: 77.2; 4: 91.7

growth measured on CN(C)c1ccc(-c2c(C#N)c(N)nn2C(=O)c2ccc(NC(=O)c3ccccn3)cc2)cc1 = 93.9
